The reported numbers originate from ChEMBL document CHEMBL3046559.

Test system: Avena sterilis
Experiment: Herbicidal activity against Avena sterilis accession P13S assessed as weed survival at 1/8 times field recommended herbicide dose
Type: functional
For each record, write down the corresponding Survival.
One number for each entry, in %.

INSERT INTO measurements (molecule, tested_system, recorded_number) VALUES
  ('C#CCOC(=O)[C@@H](C)Oc1ccc(Oc2ncc(Cl)cc2F)cc1 [CLODINAFOP PROPARGYL]', 'Avena sterilis', 63);

Batch lookup, Survival per entry.
1. COCc1cnc(C2=NC(C)(C(C)C)C(=O)N2)c(C(=O)O)c1 (stereo unspecified) [IMAZAMOX]
2. COC(=O)C(C)Oc1ccc(Oc2ccc(Cl)cc2Cl)cc1 (stereo unspecified) [DICLOFOP-METHYL]
3. CCOC(=O)[C@@H](C)Oc1ccc(Oc2nc3ccc(Cl)cc3o2)cc1 [FENOXAPROP-P-ETHYL]
4. CCc1cc(C)cc(CC)c1-c1c(OC(=O)C(C)(C)C)n2n(c1=O)CCOCC2 [PINOXADEN]
5. CCO/N=C(\CC)C1=C(O)CC(c2c(C)cc(C)cc2C)CC1=O (stereo unspecified) [TRALKOXYDIM]

[50, 83, 80, 20, 23]
